# Experimental Protocol: inhibitors of hydroxyurea-induced Chk1 phosphorylation, primary screen, imaging, HeLa, phospho-Chk1 nuclear intensity (AID 1187); note: test concentration not given here
# Run Parameters: hydroxyurea-induced phospho-Chk1 immunofluorescence imaging, higher = more signal
Activity calls are given as the source filed them. The rule behind the calls is not given here.
Endpoint: z-score

Q: // Input: COc1ccc([C@H]2C[C@H]3C(Br)=C[C@]2(OC)C(=O)[C@]32CO2)cc1 . Output its z-score only.
Result: -0.0049 (inactive)

Q: // Input: C=CCNC(=O)[C@H]1[C@@H]2C(=O)O[C@@H](c3ccccc3)[C@@H](c3ccccc3)N2[C@@H](c2ccccc2OCCO)[C@]12C(=O)N(C(=O)OCCOC)c1ccc(C#CCNC(N)=O)cc12 . Output its z-score only.
Result: -0.261 (inactive)

Q: // Input: CC(C)NC(=O)[C@@]1(Cc2ccccc2I)c2ccccc2C(=O)N(C2CCCCC2)[C@H]1c1ccc(CO)cc1 . Output its z-score only.
Result: 0.615 (inactive)

Q: // Input: COCCOC(=O)N1C(=O)[C@@]2(c3cc(C#CCC(C(=O)OC)C(=O)OC)ccc31)[C@H](c1ccccc1OCCO)N1[C@H](c3ccccc3)[C@H](c3ccccc3)OC(=O)[C@H]1[C@@H]2C(=O)N1CCCCCCC1 . Output its z-score only.
Result: -0.309 (inactive)

Q: // Input: Cc1ccc(S[C@]2(C(=O)O)CC(=O)N(Cc3cc(C(F)(F)F)cc(C(F)(F)F)c3)[C@@H]2c2ccc(CO)cc2I)cc1 . Output its z-score only.
Result: 1.08 (inactive)

Q: // Input: [N-]=[N+]=NCc1ccccc1C[C@@]1(C(=O)O)N=C(c2ccc(OCCCO)cc2)O[C@@H]1c1ccccc1N=[N+]=[N-] . Output its z-score only.
Result: -0.884 (inactive)

---

# Experimental Protocol: E. coli acrAB mutant growth effects, primary screen, E. coli filamentation inducers, strain DRC39, OD650, 24 h (AID 1178);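 note: growth measured as culture turbidity by optical density at 650 nm; test concentration not given here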
# Run Parameters: higher = more signal, called active from +8 up or from −8 down
Please mark Condition met if the recorded z-score is equal to or greater than 2, and Condition not met if it falls below.

Q: Threshold query (z-score >= 2) on CCCCCCc1nc(C2CC2)c(C)c2c1[Si](C(C)C)(C(C)C)OC2
Result: Condition not met

Q: Threshold query (z-score >= 2) on C=CC[C@]1(C(=O)OC)N=C(c2ccc(OCCCO)cc2)O[C@H]1c1ccccc1CN=[N+]=[N-]
Result: Condition met

Q: Threshold query (z-score >= 2) on C=C[C@H](OC)[C@@H](OC(=O)Nc1ccc(SC)cc1)c1ccc(OC)c(O)c1
Result: Condition not met

Q: Threshold query (z-score >= 2) on C#CCCCON=C1C[C@@H](O)[C@@H](O)[C@@H]2[C@@H]3C(=O)N(Cc4ccc5c(c4)OCO5)C(=O)[C@@H]3CC[C@@H]12
Result: Condition not met

Q: Threshold query (z-score >= 2) on C=CCNC(=O)[C@@H]1[C@H]2C(=O)O[C@H](c3ccccc3)[C@H](c3ccccc3)N2[C@H](c2ccc(OCCO)cc2)[C@@]12C(=O)N(C(=O)OCCOC)c1ccc(C#CC3(O)CCCCCC3)cc12
Result: Condition not met

Q: Threshold query (z-score >= 2) on [N-]=[N+]=NCc1ccccc1C[C@@]1(C(=O)N2CCOCC2)N=C(c2ccc(OCCCO)cc2)O[C@@H]1c1ccccc1N=[N+]=[N-]
Result: Condition met

Q: Threshold query (z-score >= 2) on C=CC[C@]1(C(=O)O)N=C(c2ccc(OCCCO)cc2)O[C@H]1c1ccccc1N=[N+]=[N-]
Result: Condition met

---

# Tested on: Human papillomavirus type 1a protein E7 (residues 44-93)
# Experimental Protocol: HPV1a E7 fragment binders on microarrays, primary screen, biochemical, small-molecule microarray, residues 44-93, 635 nm fluorescence (AID 1108);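 note: E7 fragment applied at 1 µg/mL in TBST for 1 h at 4 C; score combines spot fluorescence with its signal to noise ratio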
# Run Parameters: small-molecule microarray binding, fluorescence 635 nm; higher = more signal
Endpoint: composite z-score

Q: // Input: C[N+](C)(C)CCCCNC(=O)[C@@H]1C[C@@H]2C(=O)N3CCC[C@H]3C(=O)N2[C@@H]1c1cccc(OCCO)c1 . Output its composite z-score only.
Result: -0.745

Q: // Input: CCOC(=O)C1=CC[C@@H](c2ccccc2)N(S(=O)(=O)c2ccc(C)cc2)[C@H]1C . Output its composite z-score only.
Result: 1.47

Q: // Input: O=C(NCc1ccccc1)[C@@]1(CCS(=O)(=O)c2ccccc2)COC(c2ccc(OCCCO)cc2)=N1 . Output its composite z-score only.
Result: 0.623

Q: // Input: C[C@@H]1NC(=O)CC=C[C@@H](C)[C@@H]2C=C[C@H](O)[C@@H](COC(=O)[C@H](C)NC(=O)CC=C[C@@H](C)[C@@H]3C=C[C@H](O)[C@@H](COC1=O)O3)O2 . Output its composite z-score only.
Result: 0.0804

Q: // Input: O=C(NCC(O)CO)[C@]1(Cc2ccccc2)N=C(c2ccc(OCCCO)cc2)O[C@@H]1c1ccccc1 (stereo not given in full) . Output its composite z-score only.
Result: 0.679

Q: // Input: O=C1O[C@@H](c2ccccc2)[C@@H](c2ccccc2)N2[C@@H](c3ccccc3OCCO)[C@]3(C(=O)Nc4ccc(C#CC5=CCCCC5)cc43)[C@@H](C(=O)O)[C@H]12 . Output its composite z-score only.
Result: 0.799

Q: // Input: C=CCNC(=O)[C@H]1[C@@H]2C(=O)O[C@@H](c3ccccc3)[C@@H](c3ccccc3)N2[C@@H](c2ccccc2OCCO)[C@]12C(=O)N(C(=O)OCCOC)c1ccc(C#CCNC(N)=O)cc12 . Output its composite z-score only.
Result: 0.0146

Q: // Input: CO[C@H]1COC(=O)[C@H](C)COC(=O)[C@H](Cc2ccccc2)NC(=O)CC=C[C@H]1C . Output its composite z-score only.
Result: -0.943

Q: // Input: O=C/C=C/c1ccccc1Cl . Output its composite z-score only.
Result: -1.36

Q: // Input: C=CCC(OC(C)=O)[C@@H]1[C@@H](N(Cc2cccc3ccccc23)C(=O)c2ccc(C)cc2)c2cc(OCCCO)ccc2N1C(=O)c1ccc(-c2ccccc2)cc1 (stereo not given in full) . Output its composite z-score only.
Result: 0.479

Q: // Input: CN(C)c1ccc(C(O)C2C=CC3C(=O)NC(=O)C3N2Nc2ccc(Cl)cc2Cl)cc1 (stereo not given) . Output its composite z-score only.
Result: 1.36

Q: // Input: COc1cccc([C@@H]2[C@@H](C)CC[C@H]3C(=O)N(C)[C@@H](C(C)C)C(=O)N23)c1 . Output its composite z-score only.
Result: 0.148

Q: // Input: CC(C)(C)OC(=O)CC[C@@]1(C(=O)NCc2ccccc2)N=C(c2ccc(OCCCO)cc2)O[C@@H]1c1ccccc1 . Output its composite z-score only.
Result: 1.33

Q: // Input: CC(=O)NCCCC[C@@H]1NC(=O)[C@H]2C[C@@H](C(=O)NCCCCCCN(C)C)[C@@H](c3cccc(OCCO)c3)N2C1=O . Output its composite z-score only.
Result: 1.37

Q: // Input: CCCNC(=O)[C@@H]1c2ccccc2C(=O)N(C2CCCCC2)[C@H]1c1ccc(CO)cc1 . Output its composite z-score only.
Result: 1.44

---

# Target Or System: Follistatin-related protein 3 (Homo sapiens) (UniProt O95633)
# Sequence (O95633 whole entry, looked up): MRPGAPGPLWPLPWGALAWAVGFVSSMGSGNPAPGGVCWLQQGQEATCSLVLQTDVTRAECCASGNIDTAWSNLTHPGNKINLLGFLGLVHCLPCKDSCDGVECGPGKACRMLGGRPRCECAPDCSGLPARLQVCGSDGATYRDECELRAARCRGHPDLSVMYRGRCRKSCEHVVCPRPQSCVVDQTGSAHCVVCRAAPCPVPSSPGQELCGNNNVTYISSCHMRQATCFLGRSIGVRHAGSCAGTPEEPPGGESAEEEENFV
# Experimental Protocol: FSTL3 binders on small-molecule microarrays, primary screen, biochemical, small-molecule microarray, 635 nm fluorescence (AID 1105);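 note: score merges emission near 667 nm and signal to noise per printed spot across three slides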
# Run Parameters: FSTL3 binding, higher = more signal
Endpoint: composite z-score

Q: // Input: C=CCN1C(=O)[C@@]2(O[C@@H](CCn3cc([C@H](O)c4ccccc4)nn3)[C@H]([Si](C)(C)c3ccc(OC)cc3)[C@H]2C)c2cc(N3CCOC3=O)ccc21 . Output its composite z-score only.
Result: -0.0856

Q: // Input: CC(=O)NCCCC[C@@H]1NC(=O)[C@@H]2C[C@H](C(=O)NCCCCCNC(=O)CS)[C@H](c3ccc(O)cc3)N2C1=O . Output its composite z-score only.
Result: -0.781

Q: // Input: CCOC(=O)[C@H]1C/C=C/C[C@H](C(=O)OCC)C(=O)O[C@H]2[C@@H](OC)O[C@H](CO)[C@@H](OC(=O)Nc3ccc(Br)cc3)[C@@H]2OC1=O . Output its composite z-score only.
Result: 0.576

Q: // Input: COc1ccc([Si](C)(C)[C@H]2[C@H](CCO)O[C@@]3(C(=O)N(Cc4ccccc4)c4ccc(N5C(=O)c6cccc7cccc5c67)cc43)[C@@H]2C)cc1 . Output its composite z-score only.
Result: -0.574

Q: // Input: COC(=O)c1ccc(C#CC(NP(=O)(c2ccccc2)c2ccccc2)c2ccccc2)cc1 (centres undefined) . Output its composite z-score only.
Result: 1.7

Q: // Input: C[C@H]1C2[C@H](Cc3ccccc3)NC(=O)[C@]23C(=O)N[C@H](Cc2ccccc2)C(=O)N[C@@H](Cc2ccccc2)C(=O)NC/C=C\C/C=C/C3[C@@H]2O[C@]12C (some centres undefined) . Output its composite z-score only.
Result: 0.223

Q: // Input: CCN1C(C)=C(C(=O)OC)[C@@H](c2ccccc2)N2C(=O)[C@](O)(C(=O)OC)[C@@H](c3ccccc3)C(C(C)=O)=C12 . Output its composite z-score only.
Result: 1.04

Q: // Input: COc1ccc([C@H]2C[C@H]3C(Br)=C[C@]2(OC)C(=O)[C@]32CO2)cc1 . Output its composite z-score only.
Result: -0.0092

Q: // Input: CCCC=C(CCC)[C@@H](NS(=O)(=O)c1ccc(C(F)(F)F)cc1)c1ccc(-c2ccccc2)cc1 . Output its composite z-score only.
Result: 0.38

Q: // Input: O=C1O[C@H](c2ccccc2)[C@H](c2ccccc2)N2[C@H]1[C@@H](C(=O)NC[C@H](O)c1ccccc1)[C@]1(C(=O)Nc3ccc(C#CC4=CCCCC4)cc31)[C@H]2c1ccc(OCCO)cc1 . Output its composite z-score only.
Result: 0.968

Q: // Input: CCCNC(=O)[C@@H]1c2ccccc2C(=O)N(Cc2cc(F)cc(C(F)(F)F)c2)[C@H]1c1ccc(CO)cc1 . Output its composite z-score only.
Result: 1.35

Q: // Input: COC(=O)C[C@H]1O[C@]2(C(=O)N(Cc3ccccc3)c3ccc(I)cc32)[C@@H](C)[C@@H]1[Si](C)(C)c1ccc(OC)cc1 . Output its composite z-score only.
Result: -0.192

Q: // Input: C=C(COC)/C(=C/C[C@@H](OC(=O)c1ccncc1)c1ccc(OCCO)cc1)c1cc(C(=O)OC)ccc1OC . Output its composite z-score only.
Result: 0.461

Q: // Input: C=C(COC)/C(=C/C[C@@H](OC(C)=O)c1cccc(OCCO)c1)c1cc(C(=O)OC)ccc1OC . Output its composite z-score only.
Result: 0.121
